Assay Summary: Cytotoxicity against mouse Melan-a cells assessed as cell viability after 72 hrs by MTT assay
Format: cell-based
Details: Mus musculus, Melan-a, 72 h
pIC50: −log10 of the molar value.

Record Smiles: CC(=O)c1ccccc1C(=O)O
pIC50: 3.11

* * *

Tested on: L929
Assay Summary: Cytotoxicity against mouse L929 cells assessed as cell viability after 72 hrs by MTT assay
Assay type: cell-based
Details: Mus musculus, L929, 72 h
In this section, each of the compounds is paired with its reported IC50.

Record Smiles: CC(=O)c1ccccc1C(=O)O
IC50, µM: 474
//
Record Smiles: CC(=O)c1ccc(C(=O)O)cc1
IC50, µM: 331
//
Record Smiles: CC(=O)c1ccc(O)c(C(=O)O)c1
IC50, µM: 306
